Test system: rodent lifetime carcinogenesis bioassay, tumor incidence TD50
Test: carcinogenic potency in animals, long-term in vivo studies, CPDB compilation (AID 1745844)
Conditions: rat; strain Fischer 344; males; in drinking water; site: skin; lesion: basal-cell adenoma + basal-cell carcinoma + sebaceous gland carcinoma + sebaceous adenoma; dosed 88 weeks; study length 92 weeks

smiles.data | TD50
COc1cc(-c2ccc(N)c(OC)c2)ccc1N | 0.767 mg/kg/day

----------
Test system: rodent lifetime carcinogenesis bioassay, tumor incidence TD50
Test: carcinogenic potency in animals, long-term in vivo studies, CPDB compilation (AID 1745844)
Details: mouse; strain B6C3F1; females; in drinking water; site: liver; lesion: hepatocellular carcinoma; dosed 104 weeks; study length 104 weeks
Activity calls are given as the source filed them. No rule for the calls is given here.
Outcomes: active, inactive

smiles.data | answer.label
ClC(Cl)Cl | inactive
c1ccncc1 | active

----------
Test system: rodent lifetime carcinogenesis bioassay, tumor incidence TD50
Experiment: carcinogenic potency in animals, long-term in vivo studies, CPDB compilation (AID 1745844)
Details: hamster; strain Syrian Golden; males; in drinking water; site: forestomach; lesion: papilloma; dosed 76 weeks; study length 76 weeks
recorded.metric: TD50

smiles.data | recorded.metric | recorded.result
CCOC(N)=O | TD50 | 95.8 mg/kg/day

----------
System: rodent lifetime carcinogenesis bioassay, tumor incidence TD50
Assay: carcinogenic potency in animals, long-term in vivo studies, CPDB compilation (AID 1745844)
Details: mouse; strain CD-1 HaM/ICR; females; in feed; site: liver; lesion: several types; types named in the paper; dosed 68 weeks; study length 86 weeks

smiles.data | TD50 (mg/kg/day)
Nc1ccc(Oc2ccc(Cl)cc2)cc1 | 905

----------
Test system: rodent lifetime carcinogenesis bioassay, tumor incidence TD50
Experiment: carcinogenic potency in animals, long-term in vivo studies, CPDB compilation (AID 1745844)
Conditions: hamster; strain Syrian Golden; females; by gavage; site: spleen; lesion: all vascular tumors; dosed 30 weeks; study length 75 weeks

smiles.data | TD50
CCN(N=O)C(=O)NCCO | 3.05 mg/kg/day

----------
Tested on: rodent lifetime carcinogenesis bioassay, tumor incidence TD50
Test: carcinogenic potency in animals, long-term in vivo studies, CPDB compilation (AID 1745844)
Settings: rat; strain Wistar; females; inhaled; site: nose; lesion: squamous-cell carcinoma; dosed 111 weeks; study length 121 weeks

smiles.data | TD50
CC=O | 1030 mg/kg/day

----------
System: rodent lifetime carcinogenesis bioassay, tumor incidence TD50
Assay: carcinogenic potency in animals, long-term in vivo studies, CPDB compilation (AID 1745844)
Settings: mouse; strain Swiss albino; males; in drinking water; site: blood vessels; lesion: several types; types named in the paper; dosed 81 weeks; study length 81 weeks
recorded.metric: TD50

smiles.data | target.entity | recorded.result
CN(C)NC(=O)CCC(=O)O | rodent lifetime carcinogenesis bioassay, tumor incidence TD50 | 880 mg/kg/day

----------
System: rodent lifetime carcinogenesis bioassay, tumor incidence TD50
Test: carcinogenic potency in animals, long-term in vivo studies, CPDB compilation (AID 1745844)
Conditions: mouse; strain B6C3F1; males; in feed; site: jejunum; lesion: carcinoma; dosed 103 weeks; study length 105 weeks
recorded.metric: TD50

smiles.data | recorded.metric | recorded.result
Nc1cc(S(=O)(=O)[O-])cc2cc(S(=O)(=O)[O-])c(N=Nc3ccc(-c4ccc(N=Nc5c(S(=O)(=O)[O-])cc6cc(S(=O)(=O)[O-])cc(N)c6c5O)c(O)c4)cc3O)c(O)c12.[Cu].[Cu].[Na+].[Na+].[Na+].[Na+] | TD50 | 20300 mg/kg/day

All values here come from PubChem BioAssay AID1745844.
